Entries and their kinase still bound, per cent of control values follow.
Target: EPHB1 (human)
Assay: KINOMEscan competition binding
Details: compound 10.0 µM

structure_notation	target_or_test_system	unit_abbreviation	kinase still bound, per cent of control
CCN1CCN(Cc2ccc(Nc3ncc4c(n3)N(C)c3ccccc3C(=O)N4C)cc2C(F)(F)F)CC1	EPHB1 (human)	%	100
CCC(=O)N1CCN(c2ccc(-n3c(=O)ccc4cnc5ccc(-c6cnc7ccccc7c6)cc5c43)cc2C(F)(F)F)CC1	EPHB1 (human)	%	100
N#Cc1c(NC(=O)c2cccc3ccccc23)sc2c1CCCC2	EPHB1 (human)	%	91
CC[C@@H]1C(=O)N(C)c2cnc(Nc3ccc(C(=O)NC4CCN(C)CC4)cc3OC)nc2N1C1CCCC1	EPHB1 (human)	%	100
O=C1Nc2ccc(I)cc2/C1=C/c1cc(Br)c(O)c(Br)c1	EPHB1 (human)	%	100
COc1cc(N2CCN(C)CC2)ccc1Nc1nc(N)c(C(=O)c2c(Cl)cccc2Cl)s1	EPHB1 (human)	%	87
C=CC(=O)Nc1cccc(Oc2nc(Nc3ccc(N4CCN(C)CC4)cc3OC)ncc2Cl)c1	EPHB1 (human)	%	100

###

Target: UniProt P23443
Sequence (P23443 whole entry, looked up): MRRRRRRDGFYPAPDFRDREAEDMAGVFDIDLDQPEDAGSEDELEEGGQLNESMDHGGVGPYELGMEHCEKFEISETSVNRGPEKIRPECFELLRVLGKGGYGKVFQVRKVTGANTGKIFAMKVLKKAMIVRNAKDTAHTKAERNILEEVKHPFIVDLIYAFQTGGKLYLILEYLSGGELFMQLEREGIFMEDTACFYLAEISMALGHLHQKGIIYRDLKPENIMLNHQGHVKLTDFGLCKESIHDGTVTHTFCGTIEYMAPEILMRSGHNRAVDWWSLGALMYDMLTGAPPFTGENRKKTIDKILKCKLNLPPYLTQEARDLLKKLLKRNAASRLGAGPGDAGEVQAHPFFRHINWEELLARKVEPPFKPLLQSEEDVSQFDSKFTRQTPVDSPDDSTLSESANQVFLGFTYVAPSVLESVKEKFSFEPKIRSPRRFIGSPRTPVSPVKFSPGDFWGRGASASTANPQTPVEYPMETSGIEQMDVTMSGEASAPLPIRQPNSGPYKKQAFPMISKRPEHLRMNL
Assay: KINOMEscan competition binding
Conditions: compound 10.0 µM

structure_notation	kinase still bound, per cent of control (%)
N#Cc1c(NC(=O)c2cccc3ccccc23)sc2c1CCCC2	90
C=CC(=O)Nc1cc(NC(=O)c2ccc(C)c(NC(=O)c3ccno3)c2)cc(C(F)(F)F)c1	87
O=C(NOC[C@H](O)CO)c1ccc(F)c(F)c1Nc1ccc(I)cc1F	100
C[C@@H](Oc1cc(-n2cnc3ccc(CN4CCN(C)CC4)cc32)sc1C(N)=O)c1ccccc1C(F)(F)F	52
CN(C)C/C=C/C(=O)Nc1cccc(Nc2ncc3c(n2)N(C)c2ccccc2C(=O)N3C)c1	63
CCOc1cc2ncc(C#N)c(Nc3ccc(OCc4ccccn4)c(Cl)c3)c2cc1NC(=O)/C=C/CN(C)C	100
O=C1Nc2ccc(I)cc2/C1=C/c1cc(Br)c(O)c(Br)c1	81
O=C(O)c1ccc(Nc2ncc3c(n2)-c2ccc(Cl)cc2C(c2c(F)cccc2F)=NC3)cc1	54
C=CC(=O)Nc1cccc(Nc2nc(N[C@H]3CC[C@H](N(C)C)CC3)nc3c2ncn3C(C)C)c1	87
Nc1ccc(-c2ccc3ncc4ccc(=O)n(-c5cccc(C(F)(F)F)c5)c4c3c2)cn1	86
Cc1ccc(NC(=O)c2cccc(C(C)(C)C#N)c2)cc1Nc1ccc2ncn(C)c(=O)c2c1	100
COc1cc(N2CCN(C)CC2)ccc1Nc1nc(N)c(C(=O)c2c(Cl)cccc2Cl)s1	89
Cc1cc([C@@H](C)Nc2ccccc2C(=O)O)c2nc(N3CCOCC3)cc(=O)n2c1	72
O=C(NC1CC1)c1cccc(-c2ccc3c(NC(=O)C4CC4)n[nH]c3c2)c1	100
CCCS(=O)(=O)Nc1ccc(F)c(C(=O)c2c[nH]c3ncc(-c4ccc(Cl)cc4)cc23)c1F	86
CCN1CCN(Cc2ccc(Nc3ncc4c(n3)N(C)c3ccccc3C(=O)N4C)cc2C(F)(F)F)CC1	48
Cc1ccc2nc(NCCN)c3ncc(C)n3c2c1	96

###

Biological target: LATS1 (human) (UniProt O95835)
Sequence (O95835 whole entry, looked up): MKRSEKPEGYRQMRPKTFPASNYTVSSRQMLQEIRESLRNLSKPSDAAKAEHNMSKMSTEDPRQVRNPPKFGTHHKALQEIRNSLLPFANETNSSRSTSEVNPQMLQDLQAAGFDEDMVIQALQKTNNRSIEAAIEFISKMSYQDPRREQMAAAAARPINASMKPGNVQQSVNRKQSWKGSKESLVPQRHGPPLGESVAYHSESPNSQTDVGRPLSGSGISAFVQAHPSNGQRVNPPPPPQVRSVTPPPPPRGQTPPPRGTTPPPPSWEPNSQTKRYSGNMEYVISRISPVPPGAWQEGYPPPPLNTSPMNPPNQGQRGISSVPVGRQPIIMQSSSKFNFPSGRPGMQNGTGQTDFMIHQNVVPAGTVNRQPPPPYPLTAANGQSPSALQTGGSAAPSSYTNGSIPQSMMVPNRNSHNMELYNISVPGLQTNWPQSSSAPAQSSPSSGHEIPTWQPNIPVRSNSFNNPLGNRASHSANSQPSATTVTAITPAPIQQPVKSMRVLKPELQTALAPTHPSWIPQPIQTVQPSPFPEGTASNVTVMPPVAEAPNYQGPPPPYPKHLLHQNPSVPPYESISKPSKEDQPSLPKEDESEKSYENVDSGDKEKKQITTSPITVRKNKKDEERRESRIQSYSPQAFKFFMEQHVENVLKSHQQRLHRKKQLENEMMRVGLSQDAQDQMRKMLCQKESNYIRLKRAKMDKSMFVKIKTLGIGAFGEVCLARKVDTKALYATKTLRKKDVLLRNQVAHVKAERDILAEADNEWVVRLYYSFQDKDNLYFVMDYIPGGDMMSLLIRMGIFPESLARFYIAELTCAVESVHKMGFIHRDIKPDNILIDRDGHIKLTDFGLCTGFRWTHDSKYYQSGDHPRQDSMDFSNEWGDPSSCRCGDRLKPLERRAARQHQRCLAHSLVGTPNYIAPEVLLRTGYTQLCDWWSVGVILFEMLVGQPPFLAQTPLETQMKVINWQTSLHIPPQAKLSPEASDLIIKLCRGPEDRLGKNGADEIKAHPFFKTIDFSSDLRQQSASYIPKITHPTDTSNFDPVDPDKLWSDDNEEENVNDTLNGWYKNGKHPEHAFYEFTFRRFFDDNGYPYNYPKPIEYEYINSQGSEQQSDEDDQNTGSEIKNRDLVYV
Assay: KINOMEscan competition binding
Conditions: compound 10.0 µM
A collection of compounds and their measured kinase still bound, per cent of control

compound	unit_abbreviation	kinase still bound, per cent of control
CN(C)C/C=C/C(=O)Nc1cccc(Nc2ncc3c(n2)N(C)c2ccccc2C(=O)N3C)c1	%	100
CCC(=O)N1CCN(c2ccc(-n3c(=O)ccc4cnc5ccc(-c6cnc7ccccc7c6)cc5c43)cc2C(F)(F)F)CC1	%	100
COc1cc(N2CCN(C)CC2)ccc1Nc1nc(N)c(C(=O)c2c(Cl)cccc2Cl)s1	%	100
COc1cc(C(=O)NC2CCN(C)CC2)ccc1Nc1ncc2c(n1)N(C1CCCC1)C(C)CC(=O)N2C (centres undefined)	%	100
CCCS(=O)(=O)Nc1ccc(F)c(C(=O)c2c[nH]c3ncc(-c4ccc(Cl)cc4)cc23)c1F	%	100
O=C(O)c1ccc(Nc2ncc3c(n2)-c2ccc(Cl)cc2C(c2c(F)cccc2F)=NC3)cc1	%	98
CCOc1cc2ncc(C#N)c(Nc3ccc(OCc4ccccn4)c(Cl)c3)c2cc1NC(=O)/C=C/CN(C)C	%	90
C=CC(=O)Nc1cccc(Oc2nc(Nc3ccc(N4CCN(C)CC4)cc3OC)ncc2Cl)c1	%	100
Cc1cc([C@@H](C)Nc2ccccc2C(=O)O)c2nc(N3CCOCC3)cc(=O)n2c1	%	100

###

Target: MAPK3 (human)
Experiment: KINOMEscan competition binding
Details: compound 10.0 µM

molecule	unit_abbreviation	kinase still bound, per cent of control
CN(C)C/C=C/C(=O)Nc1cccc(Nc2ncc3c(n2)N(C)c2ccccc2C(=O)N3C)c1	%	100
CC[C@@H]1C(=O)N(C)c2cnc(Nc3ccc(C(=O)NC4CCN(C)CC4)cc3OC)nc2N1C1CCCC1	%	100
Cc1cc([C@@H](C)Nc2ccccc2C(=O)O)c2nc(N3CCOCC3)cc(=O)n2c1	%	95
Cc1ccc(C(=O)Nc2cccc(C(F)(F)F)c2)cc1Nc1cncc(C(N)=O)c1	%	100
N#Cc1c(NC(=O)c2cccc3ccccc23)sc2c1CCCC2	%	74
O=C(NOC[C@H](O)CO)c1ccc(F)c(F)c1Nc1ccc(I)cc1F	%	86
COc1cc(C(=O)NC2CCN(C)CC2)ccc1Nc1ncc2c(n1)N(C1CCCC1)C(C)CC(=O)N2C (centres undefined)	%	100
COc1cc(C(=O)NC2CCN(C)CC2)ccc1Nc1ncc2c(n1)N(C1CCCC1)CCC(=O)N2C(C)C	%	100
C=CC(=O)Nc1cccc(Oc2nc(Nc3ccc(N4CCN(C)CC4)cc3OC)ncc2Cl)c1	%	100

###

This listing pairs compounds with measured kinase still bound, per cent of control.
Target: BRAF (human) (UniProt P15056)
Sequence (P15056 whole entry, looked up): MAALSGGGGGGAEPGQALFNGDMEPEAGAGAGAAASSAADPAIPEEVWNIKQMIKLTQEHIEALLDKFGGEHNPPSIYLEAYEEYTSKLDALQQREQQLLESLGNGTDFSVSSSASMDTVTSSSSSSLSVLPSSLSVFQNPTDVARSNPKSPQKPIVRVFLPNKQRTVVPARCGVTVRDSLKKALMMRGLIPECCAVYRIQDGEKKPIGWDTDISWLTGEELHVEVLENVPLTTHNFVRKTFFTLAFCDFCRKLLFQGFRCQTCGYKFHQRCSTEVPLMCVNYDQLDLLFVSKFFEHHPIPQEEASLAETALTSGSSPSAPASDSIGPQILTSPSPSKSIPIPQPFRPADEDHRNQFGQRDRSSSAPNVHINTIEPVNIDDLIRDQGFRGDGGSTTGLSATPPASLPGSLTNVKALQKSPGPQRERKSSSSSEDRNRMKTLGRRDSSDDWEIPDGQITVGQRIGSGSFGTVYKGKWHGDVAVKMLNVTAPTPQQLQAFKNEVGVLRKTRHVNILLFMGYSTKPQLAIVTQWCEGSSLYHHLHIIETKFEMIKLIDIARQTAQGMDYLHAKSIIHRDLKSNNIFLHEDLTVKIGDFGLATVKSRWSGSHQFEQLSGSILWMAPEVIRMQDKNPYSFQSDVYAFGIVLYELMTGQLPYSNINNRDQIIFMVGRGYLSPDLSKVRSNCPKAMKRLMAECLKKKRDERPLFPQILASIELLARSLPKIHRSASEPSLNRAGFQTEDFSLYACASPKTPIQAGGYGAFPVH
Assay: KINOMEscan competition binding
Conditions: compound 10.0 µM

structure_notation	kinase still bound, per cent of control, %
C[C@@H](Oc1cc(-n2cnc3ccc(CN4CCN(C)CC4)cc32)sc1C(N)=O)c1ccccc1C(F)(F)F	79
COc1cc(N2CCN(C)CC2)ccc1Nc1nc(N)c(C(=O)c2c(Cl)cccc2Cl)s1	94
Cc1ccc2nc(NCCN)c3ncc(C)n3c2c1	95
Cc1ccc(NC(=O)c2cccc(C(C)(C)C#N)c2)cc1Nc1ccc2ncn(C)c(=O)c2c1	0
Cn1c(=O)n(-c2ccc(C(C)(C)C#N)cc2)c2c3cc(-c4cnc5ccccc5c4)ccc3ncc21	100
CCC(=O)N1CCN(c2ccc(-n3c(=O)ccc4cnc5ccc(-c6cnc7ccccc7c6)cc5c43)cc2C(F)(F)F)CC1	59
O=C(O)c1ccc(Nc2ncc3c(n2)-c2ccc(Cl)cc2C(c2c(F)cccc2F)=NC3)cc1	100
C=CC(=O)Nc1cccc(Oc2nc(Nc3ccc(N4CCN(C)CC4)cc3OC)ncc2Cl)c1	100

###

Target: LCK (human) (UniProt P06239)
Sequence (P06239 whole entry, looked up): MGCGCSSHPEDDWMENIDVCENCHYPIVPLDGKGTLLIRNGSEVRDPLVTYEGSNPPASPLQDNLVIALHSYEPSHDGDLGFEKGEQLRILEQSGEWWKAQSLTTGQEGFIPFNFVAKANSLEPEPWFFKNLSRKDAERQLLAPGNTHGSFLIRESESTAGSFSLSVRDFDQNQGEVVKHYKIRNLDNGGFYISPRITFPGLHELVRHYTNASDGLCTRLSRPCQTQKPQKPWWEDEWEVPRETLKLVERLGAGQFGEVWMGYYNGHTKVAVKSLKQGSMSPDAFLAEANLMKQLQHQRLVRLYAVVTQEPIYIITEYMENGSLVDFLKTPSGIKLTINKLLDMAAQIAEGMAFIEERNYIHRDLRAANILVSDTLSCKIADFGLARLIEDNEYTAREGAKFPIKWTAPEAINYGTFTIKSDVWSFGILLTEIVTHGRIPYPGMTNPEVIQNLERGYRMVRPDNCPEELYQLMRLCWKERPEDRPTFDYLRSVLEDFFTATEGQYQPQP
Test: KINOMEscan competition binding
Conditions: compound 10.0 µM
// reported kinase still bound, per cent of control per item

compound	target_or_test_system	kinase still bound, per cent of control, %
C[C@@H](Oc1cc(-n2cnc3ccc(CN4CCN(C)CC4)cc32)sc1C(N)=O)c1ccccc1C(F)(F)F	LCK (human) (UniProt P06239)	70
COc1cc(C(=O)NC2CCN(C)CC2)ccc1Nc1ncc2c(n1)N(C1CCCC1)C(C)CC(=O)N2C (centres undefined)	LCK (human) (UniProt P06239)	100
COc1cc(C(=O)NC2CCN(C)CC2)ccc1Nc1ncc2c(n1)N(C1CCCC1)CCC(=O)N2C(C)C	LCK (human) (UniProt P06239)	100
OCCCNc1cc(-c2ccnc(Nc3cccc(Cl)c3)n2)ccn1	LCK (human) (UniProt P06239)	100
CN(C)C/C=C/C(=O)Nc1cccc(Nc2ncc3c(n2)N(C)c2ccccc2C(=O)N3C)c1	LCK (human) (UniProt P06239)	1.2
C=CC(=O)Nc1cc(NC(=O)c2ccc(C)c(NC(=O)c3ccno3)c2)cc(C(F)(F)F)c1	LCK (human) (UniProt P06239)	45
O=C(O)c1ccc(Nc2ncc3c(n2)-c2ccc(Cl)cc2C(c2c(F)cccc2F)=NC3)cc1	LCK (human) (UniProt P06239)	1.6
O=C(NOC[C@H](O)CO)c1ccc(F)c(F)c1Nc1ccc(I)cc1F	LCK (human) (UniProt P06239)	88
Cc1ccc2nc(NCCN)c3ncc(C)n3c2c1	LCK (human) (UniProt P06239)	98

###

Target: ZAP70 (human)
Assay: KINOMEscan competition binding
Conditions: compound 10.0 µM
recorded_metric: kinase still bound, per cent of control (%)

compound	experimental_result
O=C(NC1CC1)c1cccc(-c2ccc3c(NC(=O)C4CC4)n[nH]c3c2)c1	90
Cc1ccc(NC(=O)c2cccc(C(C)(C)C#N)c2)cc1Nc1ccc2ncn(C)c(=O)c2c1	100
CCN1CCN(Cc2ccc(Nc3ncc4c(n3)N(C)c3ccccc3C(=O)N4C)cc2C(F)(F)F)CC1	90
COc1cc(C(=O)NC2CCN(C)CC2)ccc1Nc1ncc2c(n1)N(C1CCCC1)C(C)CC(=O)N2C (stereo not given)	100
CCCS(=O)(=O)Nc1ccc(F)c(C(=O)c2c[nH]c3ncc(-c4ccc(Cl)cc4)cc23)c1F	90
C=CC(=O)Nc1cc(NC(=O)c2ccc(C)c(NC(=O)c3ccno3)c2)cc(C(F)(F)F)c1	54
C=CC(=O)Nc1cccc(Oc2nc(Nc3ccc(N4CCN(C)CC4)cc3OC)ncc2Cl)c1	100
N#Cc1c(NC(=O)c2cccc3ccccc23)sc2c1CCCC2	87
CC[C@@H]1C(=O)N(C)c2cnc(Nc3ccc(C(=O)NC4CCN(C)CC4)cc3OC)nc2N1C1CCCC1	100
CCC(=O)N1CCN(c2ccc(-n3c(=O)ccc4cnc5ccc(-c6cnc7ccccc7c6)cc5c43)cc2C(F)(F)F)CC1	100
